Biological target: GPX4 (Homo sapiens)
Sequence (P36969 28-197): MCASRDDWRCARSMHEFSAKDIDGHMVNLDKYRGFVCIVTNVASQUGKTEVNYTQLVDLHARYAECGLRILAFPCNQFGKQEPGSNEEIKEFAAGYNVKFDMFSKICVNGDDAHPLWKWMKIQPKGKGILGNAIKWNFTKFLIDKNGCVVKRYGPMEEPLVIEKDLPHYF
Experiment: GPX4 activity assay in cell lysates (NADPH-coupled)
Format: biochemical
Parameters: endogenous in cells; host or cells: A-673 cell lysate
Details: 200 μM; mean ± s.d., n = 3
Property Measured: GPX4% inhibition at 200 (μM) (%)
A number alone suffices; assume %.

I am curious: what GPX4% inhibition at 200 (μM) value has been reported for Cc1ccc2[nH]c(C(=O)n3ccnc3)cc2c1 [QW-056] ? 32.7

# input compound: Cn1c(C(=O)n2ccnc2)cc2ccccc21 [QW-057] ; wanted: its GPX4% inhibition at 200 (μM) 59.8

Given the compound O=C(Nc1c[nH]c2ccccc12)n1ccnc1 [QW-065] , what is its reported GPX4% inhibition at 200 (μM)? 32.4

Please look up its GPX4% inhibition at 200 (μM): O=C(c1c[nH]c2ccccc12)n1ccnc1 [QW-058] 37.8

# input compound: COC(=O)c1ccc([C@@H]2c3[nH]c4ccccc4c3C[C@@H](C(=O)OC)N2C(=O)CCl)cc1 [RSL3, reference compound] ; wanted: its GPX4% inhibition at 200 (μM) 112.5

Given the entry O=C(c1cc2cc(Cl)ccc2[nH]1)n1ccnc1 [QW-002] , report its measured GPX4% inhibition at 200 (μM). 18.7

Data request, read-out GPX4% inhibition at 200 (μM), for O=C(c1cc2ccccc2[nH]1)n1ccnc1 [QW-064] 31.9

Record request: GPX4% inhibition at 200 (μM) value, item O=C(c1cc2cc([N+](=O)[O-])ccc2[nH]1)n1ccnc1 [QW-049] −2.6
